Measurement Notes: activity coefficient (dimensionless); of the first substance listed, at infinite dilution; xn = mol fraction of the nth substance listed
Stated Conditions: 328.15 K; 101.33 kPa; Liquid; Chromatography; x1 = 0
Observable: activity coefficient

Take a look at these entries with their results.
Molecule	activity coefficient
C=CCCC [1-pentene] + N#C[N-]C#N.OCCC[n+]1ccccc1	63.1
CCCOCCC [dipropyl ether] + N#C[N-]C#N.OCCC[n+]1ccccc1	89.2
c1ccncc1 [pyridine] + N#C[N-]C#N.OCCC[n+]1ccccc1	1.48
C#CCCCCCC [1-octyne] + N#C[N-]C#N.OCCC[n+]1ccccc1	70.2
C1CCCCCCC1 [cyclooctane] + N#C[N-]C#N.OCCC[n+]1ccccc1	188
C#CCCCCC [1-heptyne] + N#C[N-]C#N.OCCC[n+]1ccccc1	38.2
CCC[N+](=O)[O-] [1-nitropropane] + N#C[N-]C#N.OCCC[n+]1ccccc1	3.08
CC(C)O [propan-2-ol] + N#C[N-]C#N.OCCC[n+]1ccccc1	2.2

List activity coefficient for every entry below, keeping the order given.
1. C1COCCO1 [1,4-dioxane] + N#C[N-]C#N.OCCC[n+]1ccccc1
2. COC(C)=O [methyl ethanoate] + N#C[N-]C#N.OCCC[n+]1ccccc1

Reply:
[1.86, 3.43]
